Sourced from patent US11541132B2

Could you please report measured inhibition at 1 µM for the items listed next?
Biological target: native aSyn aggregates in A30P transgenic mouse brain sections (Homo sapiens, UniProt P37840, A30P)
Construct: from tissue; host or cells: brain sections (midbrain and pons as ROI) of A30P transgenic mice, line B6.D2-Tg(Thy1-SNCA*30P)31Pjk
Experiment: aSyn in vitro displacement assay ([3H]Example-3 autoradiography)
Type: binding, mutant human aSyn gene)
Details: 1 μM compound; 3 nM [3H]Example-3; A30P transgenic mouse brain sections; read-out: PCT_INHIB A30P @ 1 μM (% displacement of [3H]Example-3)
Dear colleague, please send the value followed by its unit.

compoundStructure: COc1ccc(C(=O)Nc2cnc(N3CCN(c4ccc(C#N)cc4)CC3)nc2)cc1
measValue: 97%

List the reported inhibition at 1 µM of each molecule below.
1. N#Cc1ccc(N2CCN(c3ccc(NC(=O)c4ccc(OCCF)cc4)cc3)CC2)cc1
2. Cc1ccc(C(=O)Nc2ccc(N3CCN(c4ccccn4)CC3)cn2)nc1
3. O=C(Nc1ccc(N2CCN(c3ccccn3)CC2)nn1)c1ccc(N2CCOCC2)cc1

Output line:
1. 90%
2. 82%
3. 97%

###

Biological target: native Aβ aggregates in human AD brain tissue sections (Homo sapiens)
Construct: native Aβ aggregates in human AD brain tissue samples; from tissue; host or cells: human AD brain tissue sections
Sequence (P05067 672-713 limits assumed): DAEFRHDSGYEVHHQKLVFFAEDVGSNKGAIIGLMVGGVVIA
Experiment: Aβ in vitro displacement assay (selectivity counterscreen, [3H]Example 3 autoradiography)
Type: binding
Details: 1 μM compound; 3 nM [3H]Example 3; human AD brain sections; read-out: sel. counterscreen PCT_INHIB AD @ 1 μM (% displacement of [3H]Example 3)
Assignment: determine reported inhibition at 1 µM for the given compounds.
Be sure to follow the number with its unit.

compound: N#Cc1ccc(C(=O)Nc2ccc(N3CCN(c4ccc(C#N)cn4)CC3)cc2)cc1 [Example 164]
studySystem: native Aβ aggregates in human AD brain tissue sections (Homo sapiens)
inhibition at 1 µM: 90%

compound: COc1ccc(C(=O)Nc2ccc(N3CCN(c4ccc(C#N)cn4)CC3)c(F)c2)cc1 [Example 107]
studySystem: native Aβ aggregates in human AD brain tissue sections (Homo sapiens)
inhibition at 1 µM: 96%

compound: COc1ccc(C(=O)Nc2ccc(N3CCN(c4cccs4)CC3)cc2)cc1 [Example 66]
studySystem: native Aβ aggregates in human AD brain tissue sections (Homo sapiens)
inhibition at 1 µM: 103%

compound: N#Cc1ccc(N2CCN(c3ccc(NC(=O)c4ccc(OCCOCCF)cc4)cc3)CC2)nc1 [Example 121]
studySystem: native Aβ aggregates in human AD brain tissue sections (Homo sapiens)
inhibition at 1 µM: 86%

compound: COc1ccc(C(=O)Nc2ccc(N3CCN(c4cnc(C#N)cn4)CC3)cc2)cc1 [Example 147]
studySystem: native Aβ aggregates in human AD brain tissue sections (Homo sapiens)
inhibition at 1 µM: 91%

compound: Cc1ccc(C(=O)Nc2ccc(N3CCN(c4cccnc4)CC3)cc2)cc1 [Example 37]
studySystem: native Aβ aggregates in human AD brain tissue sections (Homo sapiens)
inhibition at 1 µM: 97%

I'm hoping you can list inhibition at 1 µM for every compound here, please.
1. COc1ccc(C(=O)Nc2cnc(N3CCN(c4ccc(C#N)cn4)CC3)nc2)cc1 [Example 98]
2. COc1ccc(C(=O)Nc2ccc(N3CCN(c4ccccc4)CC3)cc2)cc1 [Example 101]

Output line:
1: 86%; 2: 99%

###

Target: native aSyn aggregates in A30P transgenic mouse brain sections (Homo sapiens, UniProt P37840, A30P)
Construct: from tissue; host or cells: brain sections (midbrain and pons as ROI) of A30P transgenic mice, line B6.D2-Tg(Thy1-SNCA*30P)31Pjk
Experiment: aSyn in vitro displacement assay ([3H]Example-3 autoradiography)
Format: binding, mutant human aSyn gene)
Conditions: 1 μM compound; 3 nM [3H]Example-3; A30P transgenic mouse brain sections; read-out: PCT_INHIB A30P @ 1 μM (% displacement of [3H]Example-3)
# inhibition at 1 µM >= 90% gives true (1), anything below gives false (0)

For orientation, consider the following solved cases.
compoundStructure: O=C(Nc1ccc(N2CCN(c3ccccn3)CC2)cc1)c1ccccc1F
assignedClass: false (0)
--
compoundStructure: N#Cc1ccc(N2CCN(c3ncc(NC(=O)c4ccc(N5CCOCC5)cc4)cn3)CC2)nc1
assignedClass: false (0)
--
compoundStructure: COc1ccc(C(=O)Nc2ccc(N3CCN(c4ccc(C#N)cn4)CC3)cn2)cc1
assignedClass: false (0)
--
compoundStructure: O=C(Nc1ccc(N2CCN(c3cccnc3)CC2)cc1)c1ccc(OCF)cc1
assignedClass: true (1)
--
compoundStructure: COc1ccc(C(=O)Nc2ccc(N3CCN(c4ccccn4)CC3)c(F)c2)cc1
assignedClass: false (0)

Input line: Confirm if inhibition at 1 µM reported for the compound O=C(Nc1ccc(N2CCN(c3ccccn3)CC2)cc1)c1ccc(OCCOCCF)cc1 is 90% or above.
Output line: true (1)

Input line: Assess whether reported inhibition at 1 µM for COc1ccc(C(=O)Nc2ccc(N3CCN(c4cccc(C#N)c4)CC3)cc2)cc1 sits at 90% or higher.
Output line: true (1)

Input line: Tell me whether inhibition at 1 µM is at least 90% here: COc1ccc(C(=O)Nc2cnc(N3CCN(c4ccccn4)CC3)nc2)c(F)c1
Output line: false (0)

Input line: State whether the measured inhibition at 1 µM reaches 90%, counting equality as reaching it, for COc1ccc(C(=O)Nc2ccc(N3CCN(c4ccc(C)nc4)CC3)cc2)cc1
Output line: false (0)

Input line: Check if inhibition at 1 µM >= 90% (inclusive). Item: O=C(Nc1cnc(N2CCN(c3ccccn3)CC2)nc1)c1ccccc1F
Output line: false (0)

Input line: Reported inhibition at 1 µM reaches at least 90% for COc1ccc(C(=O)Nc2ccc(N3CCN(c4ccccn4)CC3)cc2)c(F)c1 ?
Output line: true (1)

Input line: # check: inhibition at 1 µM of N#Cc1ccc(N2CCN(c3ccc(NC(=O)c4ccc(N5CCOCC5)cc4)cc3)CC2)cc1 is greater than or equal to 90%
Output line: true (1)

Input line: Evaluate O=C(Nc1ccc(N2CCN(c3nccs3)CC2)cc1)c1ccc(N2CCOCC2)cc1 : inhibition at 1 µM at minimum 90%?
Output line: true (1)

Input line: Item COc1ccc(C(=O)Nc2ccc(N3CCN(c4ccccn4)CC3)cc2C)c(F)c1 with inhibition at 1 µM of 90% or above?
Output line: false (0)

Input line: Decide: inhibition at 1 µM of O=C(Nc1ccc(N2CCN(c3cccnc3)CC2)cc1)c1ccc(O)cc1 >= 90%?
Output line: false (0)

Input line: Is inhibition at 1 µM at least 90%? Consider O=C(Nc1ccc(N2CCN(c3ccccn3)CC2)cc1)c1ccc(OCCOCCO)cc1
Output line: false (0)

Input line: Exam item: decide whether the reported inhibition at 1 µM for O=C(Nc1ccc(N2CCN(c3ccccn3)CC2)cc1)c1ccc2nccn2c1 is at least 90%.
Output line: false (0)

Input line: Determine whether measured inhibition at 1 µM meets or exceeds 90% for COc1ccc(C(=O)Nc2ccc(N3CCN(c4ccc(C#N)c(OC)c4)CC3)cc2)cc1
Output line: true (1)

###

Biological target: native aSyn aggregates in A30P transgenic mouse brain sections (Homo sapiens, UniProt P37840, A30P)
Construct: from tissue; host or cells: brain sections (midbrain and pons as ROI) of A30P transgenic mice, line B6.D2-Tg(Thy1-SNCA*30P)31Pjk
Assay: aSyn in vitro displacement assay ([3H]Example-3 autoradiography)
Type: binding, mutant human aSyn gene)
Settings: 1 μM compound; 3 nM [3H]Example-3; A30P transgenic mouse brain sections; read-out: PCT_INHIB A30P @ 1 μM (% displacement of [3H]Example-3)
Give inhibition at 1 µM for every item shown.
Answers are plain numbers, in %.

In the examples that follow, each entry is paired with its recorded inhibition at 1 µM.
compoundStructure: COc1ccc(C(=O)Nc2ccc(N3CCN(c4nccs4)CC3)cc2)c(F)c1
endpoint: inhibition at 1 µM
measValue: 95
--
compoundStructure: COc1ccc(C(=O)Nc2ccc(N3CCN(c4ccc(OC)nc4)CC3)cc2)cc1
endpoint: inhibition at 1 µM
measValue: 93
--
compoundStructure: COc1ccc(C(=O)Nc2ccc(N3CCN(c4ccc(C#N)cn4)CC3)cc2)c(F)c1
endpoint: inhibition at 1 µM
measValue: 87
--
compoundStructure: Cc1ccc(C(=O)Nc2ccc(N3CCN(c4nccs4)CC3)cc2)c(F)c1
endpoint: inhibition at 1 µM
measValue: 85
--
compoundStructure: COc1ccc(C(=O)Nc2ccc(N3CCN(c4cccnc4)CC3)cc2)nc1
endpoint: inhibition at 1 µM
measValue: 98

Provide inhibition at 1 µM for all items below, preserving their order.
1. N#Cc1ccc(C(=O)Nc2ccc(N3CCN(c4ccc(C#N)cn4)CC3)cc2)cc1
2. COc1ccc(C(=O)Nc2ccc(N3CCN(c4ccc(F)cn4)CC3)cc2)cc1
3. COc1ccc(C(=O)Nc2ccc(N3CCN(c4ccccn4)CC3)cn2)cc1
4. COc1ccc(C(=O)Nc2ccc(N3CCN(c4ccc(C#N)cn4)CC3)cc2)cc1
5. COc1ccc(C(=O)Nc2ccc(N3CCN(c4cccnc4OC)CC3)cc2)cc1
6. COc1ccc(C(=O)Nc2ccc(N3CCN(c4ccnc(OC)c4)CC3)cc2)cc1
7. CN1CCN(c2ccc(C(=O)Nc3ccc(N4CCN(c5ccccn5)CC4)cc3)cc2)CC1
8. COc1ccc(C(=O)Nc2ccc(N3CCN(c4ccc(C#N)cn4)CC3)cc2)cc1F

Output line:
1. 80
2. 96
3. 84
4. 97
5. 94
6. 85
7. 83
8. 96

# return inhibition at 1 µM for each item in the list
1. COc1ccc(C(=O)Nc2ccc(N3CCN(c4ncncn4)CC3)cc2)cc1
2. COc1ccc(C(=O)Nc2ccc(N3CCN(c4ccc(C#N)cc4)CC3)cc2)cc1OC
3. COc1ccc(C(=O)Nc2ccc(N3CCN(c4ccc(C#N)cc4OC)CC3)cc2)cc1
4. COc1ccc(C(=O)Nc2ccc(N3CCN(c4cccnc4)CC3)cc2)cc1
5. COc1ccc(C(=O)Nc2ccc(N3CCN(c4ccccn4)CC3)cn2)c(F)c1
6. Cc1ccc(C(=O)Nc2ccc(N3CCN(c4nccs4)CC3)cc2)nc1

Output line:
1: 81; 2: 83; 3: 94; 4: 96; 5: 95; 6: 83
